src = PubChem BioAssay (Tox21)

Test: qHTS assay to test for compound auto fluorescence at 590 nm (red) in HepG2 cell free culture (AID 720684)
Settings: cell-free medium autofluorescence, red 540/590 nm; series mostly up to 91.3 µM
Activity calls are given as the source filed them. Calls come from the whole dose curve; as a rule, active = well fitted curve in the direction sought with a large enough effect in the repeat runs; inconclusive = weak or mixed curves; inactive = flat fitted curve, though single readings scatter.
measured.property: fluorescence, % of Rose Bengal

Look over these answered cases.
>  <chem.smiles>
C[C@]12C(=O)OC(=O)[C@H]1[C@H]1C=C[C@@H]2C1

>  <fluorescence, % of Rose Bengal>
inactive

$$$$
>  <chem.smiles>
O=C1Nc2ccc([N+](=O)[O-])cc2C1=O

>  <fluorescence, % of Rose Bengal>
inactive

$$$$
>  <chem.smiles>
COc1cc(C)ccc1C(C)C

>  <fluorescence, % of Rose Bengal>
inactive

$$$$
>  <chem.smiles>
COc1nc(C)nc(NC(=O)NS(=O)(=O)c2ccccc2OCCCl)n1

>  <fluorescence, % of Rose Bengal>
inactive

$$$$
>  <chem.smiles>
Cc1ccsc1C(=CCCN1CCC[C@@H](C(=O)O)C1)c1sccc1C

>  <fluorescence, % of Rose Bengal>
inactive

$$$$
>  <chem.smiles>
CC(C)S

>  <fluorescence, % of Rose Bengal>
inactive

$$$$

Asked: I'd like to know its fluorescence, % of Rose Bengal. The compound in question is `CCCCC(=O)O[C@]1(C(=O)CO)[C@H](C)C[C@H]2[C@@H]3CCC4=CC(=O)C=C[C@]4(C)[C@@]3(F)[C@@H](O)C[C@@]21C`
Given back: inactive

Asked: fluorescence, % of Rose Bengal lookup needed for `CCCCNCCCC` , thanks.
Given back: inactive

Asked: Record request: fluorescence, % of Rose Bengal value, item `Cc1cc2nc(N)sc2cc1C`
Given back: inactive

Asked: # query: fluorescence, % of Rose Bengal of entry `C=C(C)C(=O)OCCOP(=O)(O)O`
Given back: inactive

Asked: Would you kindly share the measured fluorescence, % of Rose Bengal for `O=C(O)[C@@H]1CSCN1` ?
Given back: inactive

Asked: Looking for the measured fluorescence, % of Rose Bengal of `CC(C)OC(C)C` , can you help?
Given back: inactive

Asked: Requested read-out: fluorescence, % of Rose Bengal. Entry: `C[C@@H](N)C(=O)O`
Given back: inactive

Asked: Quick one: fluorescence, % of Rose Bengal of `NC(=O)Cc1cccc(C(=O)c2ccccc2)c1N` ?
Given back: inactive
